# test-details: solubility by turbidity measurement at 600 nm
# Assay type: physicochemical
# condition-info: sodium phosphate buffer, pH 7.4
measure-name: solubility

Exercise: Recorded solubility of "O=C(O)CCCCCCCCCCCNC(=O)NC12CC3CC(CC(C3)C1)C2" , please.
Key: 37.5 to 50 µM

---

# subject-of-test: UniProt Q45QT1
measure-name: pIC50
Remember, pIC50 is on a log scale: it is -log10 of the molar concentration.

Exercise: Record O=C(O)CCCCCCCCCCCNC(=O)NC12CC3CC(CC(C3)C1)C2 [AUDA] : what is its pIC50 with UniProt Q45QT1?
Key: 7.92
